Cited source: paper PMC5784158

Parameter: log10 IC50. Scope: all listed entries.
- experimental target: AChE (Musca domestica, UniProt Q7YWJ9)
- Sequence (Q7YWJ9 81-659): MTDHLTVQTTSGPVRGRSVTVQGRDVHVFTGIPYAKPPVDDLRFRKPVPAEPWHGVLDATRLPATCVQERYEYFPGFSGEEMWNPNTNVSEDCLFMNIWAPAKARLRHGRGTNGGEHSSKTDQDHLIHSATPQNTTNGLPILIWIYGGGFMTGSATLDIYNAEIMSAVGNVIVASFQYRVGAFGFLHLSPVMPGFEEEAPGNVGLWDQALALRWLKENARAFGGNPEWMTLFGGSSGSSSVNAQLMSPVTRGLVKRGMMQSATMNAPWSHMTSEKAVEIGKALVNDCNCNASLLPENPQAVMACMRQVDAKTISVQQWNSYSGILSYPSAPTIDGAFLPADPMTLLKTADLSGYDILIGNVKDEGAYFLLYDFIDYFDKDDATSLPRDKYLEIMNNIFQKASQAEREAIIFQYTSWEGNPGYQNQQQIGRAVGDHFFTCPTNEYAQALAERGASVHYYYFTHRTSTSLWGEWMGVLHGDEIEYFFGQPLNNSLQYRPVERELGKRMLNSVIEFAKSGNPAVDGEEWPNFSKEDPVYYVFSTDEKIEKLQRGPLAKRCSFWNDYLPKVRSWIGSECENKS
- assay details: biochemical
- Format: biochemical, fly
- condition label: read-out: IC50 ± S.D AChE
endpoint label: log10 IC50 (log10 of the value in µM)

INSERT INTO assay_data (molecule, experimental_target, meas_value) VALUES
  ('CC(C)n1c2c(c3ccccc31)CC[N+](c1ccccc1)=C2.[Br-]', 'AChE (Musca domestica, UniProt Q7YWJ9)', 0.57),
  ('Cn1c2c(c3ccccc31)CC[N+](c1ccc(I)cc1)=C2.[Br-]', 'AChE (Musca domestica, UniProt Q7YWJ9)', 0.74),
  ('Cn1c2c(c3ccccc31)CC[N+](c1ccc(Br)cc1)=C2.[Br-]', 'AChE (Musca domestica, UniProt Q7YWJ9)', 0.83),
  ('Cc1cccc(-[n+]2ccc3c4ccccc4n(C)c3c2)c1.[Br-]', 'AChE (Musca domestica, UniProt Q7YWJ9)', 0.70),
  ('CCn1c2c(c3ccccc31)CC[N+](c1ccccc1)=C2.[Br-]', 'AChE (Musca domestica, UniProt Q7YWJ9)', 0.57),
  ('Cn1c2c(c3ccc(Cl)cc31)CC[N+](c1ccccc1)=C2.[Br-]', 'AChE (Musca domestica, UniProt Q7YWJ9)', 0.60),
  ('Cn1c2ccccc2c2cc[n+](-c3ccccc3)cc21.[Br-] [Compound B1, 9-Methyl-2-phenyl-β-carboline bromide]', 'AChE (Musca domestica, UniProt Q7YWJ9)', 0.50),
  ('COc1cccc(-[n+]2ccc3c4ccccc4n(C)c3c2)c1.[Br-]', 'AChE (Musca domestica, UniProt Q7YWJ9)', 0.99),
  ('COc1ccc(-[n+]2ccc3c4ccccc4n(C)c3c2)cc1.[Br-]', 'AChE (Musca domestica, UniProt Q7YWJ9)', -0.33),
  ('CCCn1c2c(c3ccccc31)CC[N+](c1ccccc1)=C2.[Br-]', 'AChE (Musca domestica, UniProt Q7YWJ9)', 0.76),
  ('Cn1c2ccccc2c2cc[n+](-c3cccc(F)c3)cc21.[Br-]', 'AChE (Musca domestica, UniProt Q7YWJ9)', 0.67),
  ('Cn1c2ccccc2c2cc[n+](-c3cccc(C#N)c3)cc21.[Br-]', 'AChE (Musca domestica, UniProt Q7YWJ9)', 1.01),
  ('Cn1c2ccccc2c2cc[n+](-c3ccccc3F)cc21.[Br-]', 'AChE (Musca domestica, UniProt Q7YWJ9)', 0.82),
  ('CC(C)Cn1c2ccccc2c2cc[n+](-c3ccccc3)cc21.[Br-] [Compound B43, 9-Iso-butyl-2-phenyl-β-carboline bromide]', 'AChE (Musca domestica, UniProt Q7YWJ9)', -0.01),
  ('Cn1c2c(c3ccccc31)CC[N+](c1ccccc1)=C2.[Br-]', 'AChE (Musca domestica, UniProt Q7YWJ9)', 1.27),
  ('Cn1c2cc(Cl)ccc2c2cc[n+](-c3ccccc3)cc21.[Br-]', 'AChE (Musca domestica, UniProt Q7YWJ9)', -0.24);

* * *

- experimental target: AChE (Musca domestica)
- assay details: biochemical
- Format: biochemical, fly
- condition label: Estimated values based on the results in Table 1 (inhibition rate at 10 μM); read-out: IC50 AChE, estimated values
pIC50: −log10 of the molar value.
endpoint label: pIC50

INSERT INTO assay_data (structure_as_smiles, meas_value) VALUES
  ('Cn1c2c(c3ccccc31)CC[N+](c1cccc([N+](=O)[O-])c1)=C2.[Br-]', '< 5.00'),
  ('Cn1c2c(c3ccccc31)CC[N+](c1ccc(C(F)(F)F)cc1)=C2.[Br-]', '< 5.00'),
  ('Cn1c2c(c3ccccc31)CC[N+](c1cccc(Br)c1)=C2.[Br-]', '< 5.00'),
  ('COc1ccccc1[N+]1=Cc2c(c3ccccc3n2C)CC1.[Br-]', '< 5.00');
